systemName: SpHof1-3
protocolNotes: SPOT peptide array binding signal intensity (averaged, normalized) (arbitrary units (background-subtracted, floor 0; scale differs between SH3 domains)); higher = stronger binding of the SH3 domain to the peptide
Listed binders paired with reported SPOT peptide array binding signal intensity

Please review the entries below; each comes with its answer.
[[record]]
binder = "LLGRKRPVMERVVDI"
result = 29.5

[[record]]
binder = "HKVLRPFLLRRLKKD"
result = 1720

[[record]]
binder = "ANNQGPPNLPARDKS"
result = 6.75

[[record]]
binder = "LPPPPPPPPPPPLPQ"
result = 0.5

[[record]]
binder = "NFKRLLPRDPSEKSS"
result = 1360

[[record]]
binder = "RRSKSLPTTPGIRSG"
result = 1440

[[record]]
binder = "NRPAIRIPSLKKPAL"
result = 850

[[record]]
binder = "IFLRISINFPLNYPN"
result = 1040


Now consider the entry below.
Value of measured SPOT peptide array binding signal intensity for the entry SRSKPLPLTPNSKYN : 1310
